# Protocol description: Quantitative High-Throughput drug screen in 47 multiple myeloma cell lines against the NCATS MIPE library collection: EJM_DSMZ cell viability assay (AID 1918926; further: nearly all actives have a fitted effect of over 30% in size)
# Cond: EJM myeloma cell viability, CellTiter-Glo ATP, 48 h; series mostly up to 45.8 µM
Inconclusive results are not listed. Activity calls are given as the source filed them. The call rests on the fitted dose curve; in most records, active means well fitted cell-killing curve with a large enough effect; inconclusive means small, poorly fitted or top-dose-only effect, or effect the other way; inactive means no such curve, though single readings can be large or run the other way.
Possible outcomes: active, inactive

- Molecule: "Clc1ccc(C(Cn2ccnc2)OCc2ccsc2Cl)c(Cl)c1 (stereo not drawn)"
  Class name: "active"
- Molecule: "CC1(C)C(=O)N(CCN2CCC(C(=O)c3ccc(F)cc3)CC2)c2ccccc21"
  Class name: "inactive"
- Molecule: "C=CCc1cc(OC)c(O)c(C(=O)NCCO)c1"
  Class name: "inactive"
- Molecule: "CCC[C@@H]1C[C@@H](C(=O)N[C@@H]([C@H]2O[C@H](SC)[C@H](O)[C@@H](O)[C@H]2O)[C@@H](C)O)N(C)C1"
  Class name: "active"
- Molecule: "CCOC(=O)C1=C(O)C(=O)N(Cc2ccccc2)C1"
  Class name: "inactive"
- Molecule: "Cc1cccc(-c2[nH]ncc2-c2ccc3ncccc3n2)n1"
  Class name: "inactive"
- Molecule: "CC(C)C[C@H](NC(=O)[C@H](Cc1ccccc1)NC(=O)c1cnccn1)B(O)O"
  Class name: "active"
- Molecule: "Cc1nc2n(c(=O)c1CCN1CCC(c3noc4cc(F)ccc34)CC1)CCCC2"
  Class name: "inactive"
- Molecule: "CN(C)c1ccc2nc3ccc(=[N+](C)C)cc-3sc2c1"
  Class name: "active"
- Molecule: "O=C(O)c1cccnc1Nc1cccc(C(F)(F)F)c1"
  Class name: "inactive"
- Molecule: "Cc1cc(=O)oc2cc(O)ccc12"
  Class name: "inactive"
- Molecule: "CC(C)c1ccc2oc3nc(N)c(C(=O)O)cc3c(=O)c2c1"
  Class name: "inactive"
- Molecule: "CCc1nc(N)nc(N)c1-c1ccc(Cl)cc1"
  Class name: "inactive"
- Molecule: "CC(C)[C@H](N)C(=O)OCCOCn1cnc2c(=O)[nH]c(N)nc21"
  Class name: "inactive"
- Molecule: "O=C(O)c1cn(-c2ccc(F)cc2)c2cc(N3CCNCC3)c(F)cc2c1=O"
  Class name: "inactive"
- Molecule: "CC(C)c1nc(CN(C)C(=O)N[C@H](C(=O)N[C@@H](Cc2ccccc2)C[C@H](O)[C@H](Cc2ccccc2)NC(=O)OCc2cncs2)C(C)C)cs1"
  Class name: "inactive"
- Molecule: "CN1CCC(=C2c3ccccc3CCc3sccc32)CC1"
  Class name: "inactive"
- Molecule: "CCCCCCCCCCCCCCCCCCCCCCO"
  Class name: "inactive"
- Molecule: "Nc1cc(C(Cl)=C(Cl)Cl)c(S(N)(=O)=O)cc1S(N)(=O)=O"
  Class name: "inactive"
- Molecule: "COC1=C(OC)C(=O)C(CCCCCCCCCCO)=C(C)C1=O"
  Class name: "inactive"
- Molecule: "c1cnc2cc3c(cc2n1)C1CNCC3C1"
  Class name: "inactive"
- Molecule: "Cc1ncc([N+](=O)[O-])n1CC(C)O (stereo not drawn)"
  Class name: "inactive"
- Molecule: "CC(C)Oc1ccc2c(=O)c(-c3ccccc3)coc2c1"
  Class name: "inactive"

* * *

# Protocol description: Quantitative High-Throughput drug screen in 47 multiple myeloma cell lines against the NCATS MIPE library collection: ARD_JJKsccE7 cell viability assay (AID 1918929;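 on viability: 100% = DMSO-only wells and 0% = media-only wells without cells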)
# Cond: ARD myeloma cell line viability, CellTiter-Glo, 48 h; series mostly up to 45.8 µM
Records with an inconclusive call do not appear. The source made the active and inactive calls. Calls come from the whole dose curve; as a rule, active = well fitted cell-killing curve with a large enough effect; inconclusive = small, poorly fitted or top-dose-only effect, or effect the other way; inactive = no such curve, though single readings can be large or run the other way.
Possible outcomes: class 1 (active), class 0 (inactive)

- Compound: "Cc1c(C(=O)NN2CCCCC2)nn(-c2ccc(Cl)cc2Cl)c1-c1ccc(Cl)cc1"
  Class name: "class 1"
- Compound: "Oc1ccc(OCc2ccccc2)cc1"
  Class name: "class 0"
- Compound: "CCCCc1ccc2nc(NC(=O)OC)[nH]c2c1"
  Class name: "class 1"
- Compound: "N=C(N=C(N)N)N1CCOCC1"
  Class name: "class 0"
- Compound: "Clc1ccc(C(Cn2ccnc2)OCc2c(Cl)cccc2Cl)c(Cl)c1 (stereo unspecified)"
  Class name: "class 1"
- Compound: "COCCCN1CCC(NC(=O)c2cc(Cl)c(N)c3c2OCC3)CC1"
  Class name: "class 1"

* * *

# Protocol description: Quantitative High-Throughput drug screen in 47 multiple myeloma cell lines against the NCATS MIPE library collection: L363_DSMZ cell viability assay (AID 1918984); further: nearly all actives have a fitted effect of over 40% in size
# Cond: L363 myeloma viability, CellTiter-Glo ATP luminescence, 48 h; series mostly up to 45.8 µM
# Text: PI: Beverly A. Mock Ph.D. Laboratory of Cancer Biology and Genetics, Center for Cancer Research, National Cancer Institute, National Institute of Health, Bethesda, Maryland […] 5; Detector; 425V; Luminescence; Viewlux PerkinElmer. […] 1. […] Briefly, the corresponding myeloma cell lines were screened in 1,536-well plates with 500 cells, 5-uL per well for inhibition of cell viability (assessed by measuring ATP levels with CellTiterGlo). […]
Records with an inconclusive call do not appear. Calls of active or inactive are those of the source. Calls come from the whole dose curve; as a rule, active = well fitted cell-killing curve with a large enough effect; inconclusive = small, poorly fitted or top-dose-only effect, or effect the other way; inactive = no such curve, though single readings can be large or run the other way.
Labels: label 1 (active), label 0 (inactive)

- Compound: "NC(=O)Cc1cccc(C(=O)c2ccccc2)c1N"
  Class name: "label 0"
- Compound: "CC(C)c1nc(CN(C)C(=O)N[C@H](C(=O)N[C@@H](Cc2ccccc2)C[C@H](O)[C@H](Cc2ccccc2)NC(=O)OCc2cncs2)C(C)C)cs1"
  Class name: "label 0"
- Compound: "Oc1ccc2ccccc2c1SSc1c(O)ccc2ccccc12"
  Class name: "label 1"
- Compound: "Cc1cc(O)c2c(c1)C(=O)c1cc(O)cc(O)c1C2=O"
  Class name: "label 0"
- Compound: "CCC1=C(C)CN(C(=O)NCCc2ccc(S(=O)(=O)NC(=O)NC3CCC(C)CC3)cc2)C1=O (centres undefined)"
  Class name: "label 0"
- Compound: "C[Se]CCC(N)C(=O)O (centres undefined)"
  Class name: "label 0"
- Compound: "CN(C)CCCC1(c2ccc(F)cc2)OCc2cc(C#N)ccc21 (centres undefined)"
  Class name: "label 0"
- Compound: "CN(C)C(=O)[C@H](O)[C@H](Cc1ccccc1)NC(=O)c1cc2cc(Cl)ccc2[nH]1"
  Class name: "label 1"
- Compound: "O=C(NCC1CCCCN1)c1cc(OCC(F)(F)F)ccc1OCC(F)(F)F (centres undefined)"
  Class name: "label 1"
- Compound: "CCN(CC)C(=S)SSC(=S)N(CC)CC"
  Class name: "label 0"
- Compound: "CC(C)[N+]1(C)[C@@H]2CC[C@H]1CC(OC(=O)C(CO)c1ccccc1)C2 (some centres undefined)"
  Class name: "label 1"
- Compound: "COc1c(O)cc2c(c1O)[C@@H]1O[C@H](CO)[C@@H](O)[C@H](O)[C@H]1OC2=O"
  Class name: "label 0"
- Compound: "Oc1ccc(OCc2ccccc2)cc1"
  Class name: "label 0"
- Compound: "COC(=O)N[C@H](C(=O)N[C@@H](Cc1ccccc1)[C@@H](O)CN(Cc1ccc(-c2ccccn2)cc1)NC(=O)[C@@H](NC(=O)OC)C(C)(C)C)C(C)(C)C"
  Class name: "label 0"
- Compound: "NS(=O)(=O)c1cc(C(=O)O)c(NCc2ccco2)cc1Cl"
  Class name: "label 0"
- Compound: "CCOC(=O)c1c(C)n(C)c2ccc(O)cc12"
  Class name: "label 0"
- Compound: "O=C(CS(=O)Cc1ccco1)NCC=CCOc1cc(CN2CCCCC2)ccn1 (centres undefined)"
  Class name: "label 0"
- Compound: "CCCCCCCCCCCCCCCCCCCCCCO"
  Class name: "label 0"
- Compound: "NNc1nncc2ccccc12"
  Class name: "label 0"
- Compound: "Nc1ncn([C@H]2C[C@H](O)[C@@H](CO)O2)c(=O)n1"
  Class name: "label 0"
- Compound: "CCCCCCCCOc1ccccc1C(=O)Nc1ccc(C(=O)OCC[N+](C)(CC)CC)cc1"
  Class name: "label 1"
- Compound: "CCC(C)(Oc1ccc(C2(c3ccc(OC(C)(CC)C(=O)O)cc3)CCCCC2)cc1)C(=O)O (centres undefined)"
  Class name: "label 0"
- Compound: "COCCCN1CCC(NC(=O)c2cc(Cl)c(N)c3c2OCC3)CC1"
  Class name: "label 1"
- Compound: "Clc1ccc2c(N3CCN(CCCN4CCN(c5ccnc6cc(Cl)ccc56)CC4)CC3)ccnc2c1"
  Class name: "label 0"
- Compound: "COc1c2occc2cc2ccc(=O)oc12"
  Class name: "label 0"
- Compound: "NC(=NCc1ccccc1)NC(=O)c1nc(Cl)c(N)nc1N"
  Class name: "label 1"
- Compound: "CNC[C@H](O)c1ccc(O)c(O)c1"
  Class name: "label 0"
- Compound: "Clc1ccc(C(Cn2ccnc2)OCc2c(Cl)cccc2Cl)c(Cl)c1 (centres undefined)"
  Class name: "label 1"
- Compound: "Nc1nc(N)c(N=O)c(OCC2CCCCC2)n1"
  Class name: "label 1"
- Compound: "CCCCN(CCCC)CCC(O)c1cc2c(Cl)cc(Cl)cc2c2cc(C(F)(F)F)ccc12 (centres undefined)"
  Class name: "label 0"
- Compound: "COC1=C(OC)C(=O)C(CCCCCCCCCCO)=C(C)C1=O"
  Class name: "label 1"
- Compound: "Cc1cccc(-c2[nH]ncc2-c2ccc3ncccc3n2)n1"
  Class name: "label 0"
- Compound: "COCCCOc1ccnc(CS(=O)c2nc3ccccc3[nH]2)c1C (centres undefined)"
  Class name: "label 0"
- Compound: "CN(c1nccc(=O)[nH]1)C1CCN(c2nc3ccccc3n2Cc2ccc(F)cc2)CC1"
  Class name: "label 0"
- Compound: "Cc1cc(=O)c2c(O)c3c(O)cc(=O)c4c3c3c(cc(O)c1c23)C(C)(C)C=4O"
  Class name: "label 1"
- Compound: "O=P(O)(O)C(O)(Cn1ccnc1)P(=O)(O)O"
  Class name: "label 0"
- Compound: "O=c1cc(N2CCOCC2)oc2c(-c3ccccc3)cccc12"
  Class name: "label 0"
- Compound: "N[C@@H](Cc1cc(I)c(Oc2cc(I)c(O)c(I)c2)c(I)c1)C(=O)O"
  Class name: "label 0"
- Compound: "C[C@H](Cn1cnc2c(N)ncnc21)OCP(=O)(O)O"
  Class name: "label 0"
- Compound: "CCOC(=O)C(C)Oc1cccc2c(=O)n(CC(=O)Nc3ccc4c(c3)OCCO4)ccc12 (centres undefined)"
  Class name: "label 1"
- Compound: "O=C(c1ccccc1)c1ccc2n1CCC2C(=O)O (centres undefined)"
  Class name: "label 0"
- Compound: "Cc1ccc(Nc2nccc(N(C)c3ccc4c(C)n(C)nc4c3)n2)cc1S(N)(=O)=O"
  Class name: "label 1"
- Compound: "CC1(C)C(=O)N(CCN2CCC(C(=O)c3ccc(F)cc3)CC2)c2ccccc21"
  Class name: "label 1"
- Compound: "CCN(CCO)CCCC(C)Nc1ccnc2cc(Cl)ccc12 (centres undefined)"
  Class name: "label 0"
